Data provenance is patent US9751865B2.

System: Zea mays
Assay: Post-emergence herbicidal activity, ZEAMX
Format: in vivo
Conditions: application post-emergence, 1000 g/Ha, evaluated after 13 days, scale 0-5
Assay Endpoint: ZEAMX damage score
Give your answer as a number; write no unit.

// known answers, use as guide
Compound	Value Reported
COCC1C(O)N(c2cc(C(C)(C)C)n(C)n2)C(=O)N1C (centres unmarked)	4
CN1CC(O)N(c2nn(C)c(C(C)(C)C)c2C#N)C1=O (centres unmarked)	2
CN1CC(O)N(c2cc3n(n2)CCC3(C)C)C1=O (centres unmarked)	5
COCC1C(O)N(c2cc(C(C)(C)OC)n(C)n2)C(=O)N1C (centres unmarked)	2

Below: the item to evaluate.
Query: What value of ZEAMX damage score has been recorded for this entry: CN1CC(O)N(c2cc(C(F)(F)F)n(C)n2)C1=O (centres unmarked)
Response: 4
